TEST_SYSTEM: BSA (Bos taurus, UniProt P02769)
Sequence (P02769 25-607): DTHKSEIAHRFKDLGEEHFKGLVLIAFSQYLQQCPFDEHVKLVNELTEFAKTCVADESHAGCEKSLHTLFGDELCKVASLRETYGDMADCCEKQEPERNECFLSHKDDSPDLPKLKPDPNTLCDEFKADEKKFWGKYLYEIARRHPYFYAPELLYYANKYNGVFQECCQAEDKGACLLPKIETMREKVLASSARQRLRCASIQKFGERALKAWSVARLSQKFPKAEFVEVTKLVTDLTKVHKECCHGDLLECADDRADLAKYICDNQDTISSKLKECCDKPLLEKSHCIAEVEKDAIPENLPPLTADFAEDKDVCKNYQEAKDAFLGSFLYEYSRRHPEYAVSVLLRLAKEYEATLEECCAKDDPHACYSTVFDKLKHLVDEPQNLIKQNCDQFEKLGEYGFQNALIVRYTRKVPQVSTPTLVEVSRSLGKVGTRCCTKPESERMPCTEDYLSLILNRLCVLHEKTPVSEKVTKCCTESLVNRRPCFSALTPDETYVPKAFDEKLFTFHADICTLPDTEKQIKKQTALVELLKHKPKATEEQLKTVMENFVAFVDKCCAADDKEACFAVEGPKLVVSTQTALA
Type: in vitro ADME, bovine
CONDITION_INFO: bovine, BSA solution, Plasma protein binding (with cinnamic acid), metoprolol 1 μg mL^−1 plus cinnamic acid 1 μg mL^−1, BSA
METRIC: fraction unbound at 60 min, 1 μg mL^−1
Reply: number alone, nothing else.

// query Query (compound): COCCc1ccc(OCC(O)CNC(C)C)cc1 (stereo not shown) ; field requested: fraction unbound at 60 min, 1 μg mL^−1
// result 0.693

----------
TEST_SYSTEM: BSA (Bos taurus, UniProt P02769)
Format: in vitro ADME, bovine
CONDITION_INFO: bovine, BSA solution, Plasma protein binding (with liquiritin), metoprolol 0.5 μg mL^−1 plus liquiritin 2 μg mL^−1, BSA
METRIC: fraction unbound at 60 min, 0.5 μg mL^−1
Reply: number alone, nothing else.

// query Short answer please: fraction unbound at 60 min, 0.5 μg mL^−1, BSA (Bos taurus, UniProt P02769), entry COCCc1ccc(OCC(O)CNC(C)C)cc1 (stereo not shown)
// result 0.74

----------
TEST_SYSTEM: BSA (Bos taurus)
Type: in vitro ADME, bovine
CONDITION_INFO: bovine, BSA solution, Plasma protein binding (with glycyrrhizic acid), metoprolol 0.5 μg mL^−1 plus glycyrrhizic acid 2 μg mL^−1, BSA
METRIC: fraction unbound at 60 min, 0.5 μg mL^−1

// query Query (compound): COCCc1ccc(OCC(O)CNC(C)C)cc1 (stereo not shown) ; field requested: fraction unbound at 60 min, 0.5 μg mL^−1
// result 0.721

----------
TEST_SYSTEM: BSA (Bos taurus, UniProt P02769)
Type: in vitro ADME, bovine
CONDITION_INFO: bovine, BSA solution, Plasma protein binding (with cinnamic acid), metoprolol 2 μg mL^−1 plus cinnamic acid 1 μg mL^−1, BSA
METRIC: fraction unbound at 60 min, 2 μg mL^−1
Reply: number alone, nothing else.

// query Query (molecule): COCCc1ccc(OCC(O)CNC(C)C)cc1 (stereo not shown) [Metoprolol] ; field requested: fraction unbound at 60 min, 2 μg mL^−1
// result 0.716

----------
TEST_SYSTEM: BSA (Bos taurus, UniProt P02769)
Type: in vitro ADME, bovine
CONDITION_INFO: bovine, BSA solution, Plasma protein binding (with cinnamic acid), metoprolol 0.5 μg mL^−1 plus cinnamic acid 1 μg mL^−1, BSA
METRIC: fraction unbound at 60 min, 0.5 μg mL^−1
Reply: number alone, nothing else.

// query Query (molecule): COCCc1ccc(OCC(O)CNC(C)C)cc1 (stereo not shown) [Metoprolol] ; field requested: fraction unbound at 60 min, 0.5 μg mL^−1
// result 0.741

----------
TEST_SYSTEM: BSA (Bos taurus)
Type: in vitro ADME, bovine
CONDITION_INFO: bovine, BSA solution, Plasma protein binding (with glycyrrhizic acid), metoprolol 1 μg mL^−1 plus glycyrrhizic acid 2 μg mL^−1, BSA
METRIC: fraction unbound at 60 min, 1 μg mL^−1
Reply: number alone, nothing else.

// query Short answer please: fraction unbound at 60 min, 1 μg mL^−1, BSA (Bos taurus), entry COCCc1ccc(OCC(O)CNC(C)C)cc1 (stereo not shown) [Metoprolol]
// result 0.717
